Source: the supplement of paper PMC7877785

# protocol summary: self-splicing fitness, log relative to wild type (ln ratio); higher = more splicing; Tetrahymena group I intron in knt gene, E. coli kanamycin selection, DiMSum; sequences stand for … in CUCUCU…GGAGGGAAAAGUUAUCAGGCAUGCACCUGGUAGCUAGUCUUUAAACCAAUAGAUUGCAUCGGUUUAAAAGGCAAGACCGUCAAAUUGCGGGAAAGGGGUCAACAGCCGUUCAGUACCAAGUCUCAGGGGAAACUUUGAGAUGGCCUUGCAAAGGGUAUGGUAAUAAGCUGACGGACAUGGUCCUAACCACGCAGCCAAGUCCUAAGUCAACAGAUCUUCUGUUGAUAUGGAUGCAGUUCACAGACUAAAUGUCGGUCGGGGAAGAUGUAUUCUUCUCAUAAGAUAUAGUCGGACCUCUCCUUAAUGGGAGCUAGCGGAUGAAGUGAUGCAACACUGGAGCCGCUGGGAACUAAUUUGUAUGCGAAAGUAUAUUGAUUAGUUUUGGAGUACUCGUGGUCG;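 also: selection with 25 µg/mL kanamycin versus none on LB agar overnight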
# particulars: 37 °C
Measured self-splicing fitness (ln) of individual entries

| chain sequence | self-splicing fitness (ln) |
| --- | --- |
| CGUAAGCAAUAUUACGAAUG | -0.692 |
| CGAAAGCAAUAUUACGGCUC | -1.73 |
| UAUCAGCAAUAUUACGUCUU | -0.155 |
| UCUAAGCAAUAUUACGGACC | -1.99 |
| CGCAAGCAAUAUUACGUACU | -0.119 |
| AGAGAGCAAUAUUACGGUAG | -2.18 |
| CGGUAGCAAUAUUACGGCUA | -2.01 |
| CGACAGCAAUAUUACGCUGC | -2.24 |
| CGCGAGCAAUAUUACGGAAG | -2.32 |
| UCUCAGCAAUAUUACGCAAG | -2.02 |
| UCAUAGCAAUAUUACGGAGU | -2.86 |
| UCGUAGCAAUAUUACGUGUU | -2.46 |
| CAAGAGCAAUAUUACGUUGA | -2.94 |
| AUACAGCAAUAUUACGAGCU | -1.26 |
| GUCAAGCAAUAUUACGUACG | -1.9 |
| UGCGAGCAAUAUUACGAGCA | -2.37 |

* * *

# protocol summary: self-splicing fitness, log relative to wild type (ln ratio); higher = more splicing; Tetrahymena group I intron in knt gene, E. coli kanamycin selection, DiMSum; sequences stand for … in CUCUCU…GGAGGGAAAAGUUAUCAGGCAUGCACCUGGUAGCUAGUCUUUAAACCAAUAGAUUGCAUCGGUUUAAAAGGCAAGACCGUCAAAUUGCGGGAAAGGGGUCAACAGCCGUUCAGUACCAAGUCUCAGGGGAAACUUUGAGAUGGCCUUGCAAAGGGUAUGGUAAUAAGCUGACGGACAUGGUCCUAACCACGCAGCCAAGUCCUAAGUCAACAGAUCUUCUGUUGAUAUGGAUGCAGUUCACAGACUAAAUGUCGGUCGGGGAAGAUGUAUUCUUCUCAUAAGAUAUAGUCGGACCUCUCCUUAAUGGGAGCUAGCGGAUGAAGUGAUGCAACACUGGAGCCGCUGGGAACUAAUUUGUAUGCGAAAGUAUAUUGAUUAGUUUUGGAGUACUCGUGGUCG
# particulars: 30 °C
Decide using self-splicing fitness (ln): a value greater than or equal to -2 is fulfilled, a smaller one is not fulfilled.

| chain sequence | cat |
| --- | --- |
| UAUCAGCAAUAUUACGUGUA | fulfilled |
| GUUUAGCAAUAUUACGUGCU | not fulfilled |
| GCGCAGCAAUAUUACGUUCU | fulfilled |
| CCUCAGCAAUAUUACGGCGG | not fulfilled |
| ACGUAGCAAUAUUACGUGGU | not fulfilled |
| UAAAAGCAAUAUUACGUGAG | fulfilled |
| UAGUAGCAAUAUUACGACUU | fulfilled |
| GCGAAGCAAUAUUACGAAAC | fulfilled |
| AACAAGCAAUAUUACGCGCU | fulfilled |
| UGGAAGCAAUAUUACGAAGA | not fulfilled |
| GCCUAGCAAUAUUACGAGCG | fulfilled |
| CGGAAGCAAUAUUACGAUGU | not fulfilled |
| AGGUAGCAAUAUUACGGGCA | fulfilled |
| AUAUAGCAAUAUUACGCGUG | fulfilled |
